// provenance: paper PMC5540273

Catalogue of %Inh readings, one per entry.
# Tested on: NEK4;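 further: KINOMEscan kinase panel screen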
# RUN_PARAMETERS: concentration: 1 μM, replicates: in singlicate; n = 1
Could you give me the number in %? Just the number is fine.

Sample answers from the record:
>>> readout_number("Nc1nc(-c2ccccn2)c(-c2ccnc3ccccc23)s1 [GW548057]")
0
>>> readout_number("CN1c2ccc(-c3ccc(C(=O)NCCO)cc3)cc2-c2[nH]ncc2S1(=O)=O")
0
>>> readout_number("COC(=O)c1cccc(NC(=O)NCCNc2ccnc(Nc3ccc(F)cc3)n2)c1 [GSK1379883]")
0

Form field %Inh, entry Nc1n[nH]c2nnc(-c3ccccc3)cc12 [SB-517389] : 21

Form field %Inh, entry "N#Cc1ccc(Oc2ccc(Nc3ncnc4cc[nH]c34)cc2Cl)cc1" : 0
